tested on: NCI-H322M lung; assay: NCI-60 one-dose screen, 48 h (100 = growth as untreated, 0 = no growth, -100 = all killed); conditions: 10 µM unless noted
About 83,000 compounds went through this panel and 20% of them were active in at least one assay; those are over-represented in the sample as a whole. Activity calls are given as the source filed them. Rule for the calls: active = growth percent below 10; inactive = the rest.
So I've got a bunch of compounds here, and I need their growth values.

Inquiry: Determine its reported growth: COc1ccc2[nH]cc(-c3nn4cc(-c5ccncc5)nc4s3)c2c1
Reply text: 78.2% (inactive)

Inquiry: Let me know recorded growth for Cc1ccc2c(n1)C(=O)C(Cl)=C(Nc1ccc(C(=O)OC(C)(C)C)cc1)C2=O , thanks.
Reply text: 101% [9.25 µM] (inactive)

Inquiry: Look up and report measured growth for this entry: CN1c2ccccc2Sc2cc(/C=N/Nc3ccnc4cc(Cl)ccc34)ccc21
Reply text: 107% (inactive)

Inquiry: Recall and state the measured growth for CN1CCN(Cc2ccc(NC(=O)c3cncc(C#Cc4cnc5ccc(NCCO)nn45)c3)cc2C(F)(F)F)CC1 .
Reply text: -15% (active)

Inquiry: Identify measured growth associated with Cc1ccc([C@H]2c3[nH]c4ccccc4c3C[C@H]3C(=O)N(CCCCCCC(=O)NO)CC(=O)N23)s1
Reply text: 67.4% (inactive)

Inquiry: Check the records and state growth for CCOC(=O)C1=C(C)NC(C)=C(C(=O)OC(C)C)C1c1cccc(C#N)c1 (centres undefined)
Reply text: 100% (inactive)

Inquiry: Check the records and state growth for CCN(CC)c1ccc(/C=N/NC(=O)c2ccc(S(N)(=O)=O)cc2)c(O)c1
Reply text: 22.1% (inactive)

Inquiry: Provide growth value for the following compound: O=C(Nc1ccc(N=Cc2c(O)[nH]c3ccccc23)cc1)Nc1ccc(S(=O)(=O)Nc2ncccn2)cc1
Reply text: 114% (inactive)

Inquiry: Tell us which growth value is on record for NC1CC2(CCN(c3cnc(C(=O)Nc4cc(F)cc5cccnc45)cn3)CC2)C1
Reply text: 87.4% (inactive)

###

test system: CCRF-CEM leukemia; experiment: NCI-60 one-dose screen, 48 h (100 = growth as untreated, 0 = no growth, -100 = all killed); settings: 10 µM unless noted
This is part of a sample that, as a whole, favours compounds with a hit. Of some 83,000 tested, about 20% had one in any assay.
Would you mind telling me the reported growth of each entry?
Write the value in % as a bare number.

Inquiry: Entry O=[N+]([O-])c1ccc(NC(=S)NNC(=S)Nc2ccc(F)cc2)cc1 needs its growth filled in; supply it.
Reply text: 103

Inquiry: Please give measured growth of the following entry: O=C1Nc2ccccc2/C1=N\c1nnc(-c2ccccc2)o1
Reply text: 96.2

Inquiry: Supply growth value. Item: COc1ccc(-c2c(C(N)=O)c(N)n(Cc3nc4ccccc4[nH]3)c(=O)c2C#N)c(OC)c1
Reply text: 107

Inquiry: For the compound O=C(CCCCCCNC(=O)C(O)(O)C(F)(F)F)Nc1ccc(Br)cc1 , give its measured growth value.
Reply text: 23.9

Inquiry: Please report growth for the following compound: O=C1C(SCc2ccccc2)=C(Cl)CN1c1ccc(Cl)cc1
Reply text: 70.8

###

tested on: OVCAR-8 ovarian; assay: NCI-60 one-dose screen, 48 h; conditions: 10 µM unless noted
This is part of a sample that, as a whole, favours compounds with a hit. Of some 83,000 tested, about 20% had one in any assay. The source made the active and inactive calls. The calls were made as follows: active = growth percent below 10; inactive = the rest.
Field 'call' accepts active, inactive

Inquiry: Per the assay record, what outcome was assigned to CC(=O)c1cc(C(=O)N2c3ccccc3Sc3ccccc32)n2c1ccc1ccccc12 ?
Reply text: inactive

Inquiry: I'd appreciate the recorded outcome for O=c1c2cc(-c3ccc(F)cc3F)ccc2n(Nc2ccccc2)c(=O)n1-c1cccc(C(F)(F)F)c1 from this test.
Reply text: inactive

Inquiry: GET /call?item= O=C1C(N2CCN(c3ccccc3)CC2)=C(Cl)C(=O)c2ncccc21 returns the recorded outcome of this test.
Reply text: inactive

Inquiry: Status in this test for CC(C)(C)OC(=O)Nc1ccc(-c2cccc(Oc3ccc4nnc(Cl)n4n3)c2)cc1 ?
Reply text: inactive

Inquiry: What classification did COc1cc(-c2nc(-c3ccccc3)[nH]c2-c2ccnc(NCCCNS(=O)(=O)c3cccc(F)c3)n2)ccc1F end up with in this test?
Reply text: inactive

Inquiry: For CC(=O)/C(N=Nc1ccc2oc(=O)ccc2c1)=C(\C)O , what call appears in the results of this test?
Reply text: inactive

Inquiry: Name the outcome recorded for CC/C(=C(/c1ccc(Cl)cc1)c1ccc(OCCN)cc1)c1ccccc1 in the assay.
Reply text: inactive

Inquiry: I would be grateful if you could indicate the recorded call for CN1CCN(c2ccc(Nc3nc(NCCCNS(=O)(=O)c4ccc(C(F)(F)F)cc4)c4sccc4n3)cc2)CC1 .
Reply text: active

Inquiry: Outcome logged for O=S(=O)(NCCCNc1nccc(-c2[nH]c(-c3ccccc3)nc2-c2ccc(F)c(O)c2)n1)c1ccc(C(F)(F)F)cc1 in this assay:
Reply text: inactive

Inquiry: What outcome does the record of this test show for O=C1Nc2cc(Cl)ccc2/C1=C\c1ccc(OCc2ccccc2)cc1 ?
Reply text: inactive

Inquiry: Identify the outcome logged in this assay for the compound shown: C[C@]12CC[C@H]3[C@@H](CC=C4C[C@@H](O)CC[C@@]43C)[C@@H]1CC[C@@H]2[C@](C)(O)CCc1cccnc1
Reply text: inactive

Inquiry: Hi team, can someone confirm the assay call for O=C(/C=C/C=C/c1csc(Br)n1)NO ?
Reply text: inactive

Inquiry: Please indicate how the test categorized CCOC(=O)c1ccc(NC2=C(Cl)C(=O)c3nc(C)ccc3C2=O)cc1 .
Reply text: inactive

Inquiry: What call does the record list for CCCCc1nc2c(N)nc3ccccc3c2n1Cc1ccc(OC)cc1 ?
Reply text: inactive

Inquiry: What classification did COc1ccc2[nH]cc(-c3nn4cc(-c5ccncc5)nc4s3)c2c1 end up with in this test?
Reply text: inactive

Inquiry: What outcome does the record of this test show for CCOC(=O)c1c(NC(=O)c2cccc(C(F)(F)F)c2)sc2c1CCC(=O)C2 ?
Reply text: inactive

Inquiry: For NC(=O)c1c(NC(=O)c2ccc(C(F)(F)F)cc2)sc2c1CCC(=O)C2 , which call appears in the assay record?
Reply text: active

Inquiry: // outcome(item) with item = Cc1ccc(C)c(NC2=C(Cl)C(=O)c3nc(C)ccc3C2=O)c1
Reply text: active

Inquiry: Per the assay record, what outcome was assigned to NC(N)=NS(=O)(=O)c1ccc(N=Nc2c(N)nn(-c3ccc([N+](=O)[O-])cc3[N+](=O)[O-])c2N)cc1 ?
Reply text: inactive

Inquiry: Outcome? CC(C)(C)OC(=O)NCc1ccc(CNc2c([N+](=O)[O-])cnc3ccccc23)cc1
Reply text: inactive
